assay: Dynamic light scattering: LNP particle size and PDI; format: physicochemical; conditions: LNP, Formulation F2, N/P 6
Parameter: Size (nm) N/P:6

CCCCC/C=C\CCOC(=O)CCCCCC(=O)OCC(COC(=O)CCCCCC(=O)OCC/C=C\CCCCC)(COC(=O)CCCCCC(=O)OCC/C=C\CCCCC)COC(=O)CCC(CCCCCC)OC(=O)NCCN1CCCC1 (stereo not shown) : 97
CCCCCCC(CCC(=O)OCC(COC(=O)CCCCCCOC(=O)C(CCCC)CCCCCC)(COC(=O)CCCCCCOC(=O)C(CCCC)CCCCCC)COC(=O)CCCCCCOC(=O)C(CCCC)CCCCCC)OC(=O)NCCN1CCCC1 (stereo not shown) : 78
CCCCC/C=C\C/C=C\CCCCCCCC(=O)OCC(COC(=O)CCCCCCC/C=C\C/C=C\CCCCC)(COC(=O)CCC(CCCCCC)OC(=O)NCCN1CCCC1)COC(=O)CC12CC3CC(CC(C3)C1)C2 (stereo not shown) : 88
CCCCC/C=C\CCOC(=O)CCCCCCC(=O)OCC(COC(=O)CCCCCCC(=O)OCC/C=C\CCCCC)(COC(=O)CCC(CCCCCC)OC(=O)NCCN1CCCC1)COC(=O)CCC(OCCCCCCCC)OCCCCCCCC (stereo not shown) : 84
CCCCCCCC/C=C\CCCCCCCC(=O)OCC(COC(=O)CCCCCCC/C=C\CCCCCCCC)(COC(=O)CCCCCCC/C=C\CCCCCCCC)COC(=O)CCC(CCCCCC)OC(=O)NCCN1CCCC1 (stereo not shown) : 89
CCCCCCCCOC(CCC(=O)OCC(COC(=O)CCCCCCOC(=O)C(CCCC)CCCCCC)(COC(=O)CCC(CCCCCC)OC(=O)NCCN1CCCC1)COC(=O)CCC(OCCCCCCCC)OCCCCCCCC)OCCCCCCCC (stereo not shown) : 76
CCCCC/C=C\CCOC(=O)CCCCCCC(=O)OCC(COC(=O)CCCCCCC(=O)OCC/C=C\CCCCC)(COC(=O)CCCCCCC(=O)OCC/C=C\CCCCC)COC(=O)CCC(CCCCCC)OC(=O)NCCN1CCCC1 (stereo not shown) : 96
CCCCC/C=C\CCOC(=O)CCCCCC(=O)OCC(COC(=O)CCCCCC(=O)OCC/C=C\CCCCC)(COC(=O)CCC(CCCCCC)OC(=O)NCCN1CCCC1)COC(=O)CC12CC3CC(CC(C3)C1)C2 (stereo not shown) : 117
CCCCCCCC/C=C\CCCCCCCC(=O)OCC(COC(=O)CCCCCCC/C=C\CCCCCCCC)(COC(=O)CCC(CCCCCC)OC(=O)NCCN1CCCC1)COC(=O)CC12CC3CC(CC(C3)C1)C2 (stereo not shown) : 92
CCCCC/C=C\C/C=C\CCCCCCCC(=O)OCC(COC(=O)CCCCCCC/C=C\C/C=C\CCCCC)(COC(=O)CCC(CCCCCC)OC(=O)NCCN1CCCC1)COC(=O)CCC(OCCCCCCCC)OCCCCCCCC (stereo not shown) : 83

* * *

Assay: Dynamic light scattering: LNP particle size and PDI
Assay type: physicochemical
Conditions: LNP, Formulation F4, N/P 6
Protocol: Lipids and active ingredients (e.g., RNA, DNA, etc.) were assembled into LNPs using microfluidic mixing. […] LNPs were diluted with PBS pH 7.4 to predetermined dilution ranges based on the process step and LNP concentration. Following mixing, the particle size and PDI were measured by a dynamic light scattering instrument.
Parameter: Size (nm) N/P:6

CCCCC/C=C\CCOC(=O)CCCCCC(=O)OCC(COC(=O)CCCCCCOC(=O)C(CCCC)CCCCCC)(COC(=O)CCCCCC(=O)OCC/C=C\CCCCC)COC(=O)CCC(CCCCCC)OC(=O)NCCN1CCCC1 (stereo not shown) : 64
CCCCC/C=C\CCOC(=O)CCCCC(=O)OCC(COC(=O)CCCCC(=O)OCC/C=C\CCCCC)(COC(=O)CCC(CCCCCC)OC(=O)NCCN1CCCC1)COC(=O)CC12CC3CC(CC(C3)C1)C2 (stereo not shown) : 68
CCCCC/C=C\CCOC(=O)CCCCCC(=O)OCC(COC(=O)CCCCCC(=O)OCC/C=C\CCCCC)(COC(=O)CCC(CCCCCC)OC(=O)NCCN1CCCC1)COC(=O)CCC(OCCCCCCCC)OCCCCCCCC (stereo not shown) : 63
CCCCCCCCOC(CCC(=O)OCC(COC(=O)CCCCCCOC(=O)C(CCCC)CCCCCC)(COC(=O)CCC(CCCCCC)OC(=O)NCCN1CCCC1)COC(=O)CCC(OCCCCCCCC)OCCCCCCCC)OCCCCCCCC (stereo not shown) : 61
CCCCC/C=C\C/C=C\CCCCCCCC(=O)OCC(COC(=O)CCCCCCC/C=C\C/C=C\CCCCC)(COC(=O)CCC(CCCCCC)OC(=O)NCCN1CCCC1)COC(=O)CCC(OCCCCCCCC)OCCCCCCCC (stereo not shown) : 63
CCCCC/C=C\CCOC(=O)CCCCCC(=O)OCC(COC(=O)CCCCCC(=O)OCC/C=C\CCCCC)(COC(=O)CCCCCC(=O)OCC/C=C\CCCCC)COC(=O)CCC(CCCCCC)OC(=O)NCCN1CCCC1 (stereo not shown) : 75
CCCCC/C=C\CCOC(=O)CCCCCCC(=O)OCC(COC(=O)CCCCCCC(=O)OCC/C=C\CCCCC)(COC(=O)CCC(CCCCCC)OC(=O)NCCN1CCCC1)COC(=O)CC12CC3CC(CC(C3)C1)C2 (stereo not shown) : 74
CCCCCCCC/C=C\CCCCCCCC(=O)OCC(COC(=O)CCCCCCC/C=C\CCCCCCCC)(COC(=O)CCC(CCCCCC)OC(=O)NCCN1CCCC1)COC(=O)CCC(OCCCCCCCC)OCCCCCCCC (stereo not shown) : 73
CCCCC/C=C\CCOC(=O)CCCCCCC(=O)OCC(COC(=O)CCCCCCC(=O)OCC/C=C\CCCCC)(COC(=O)CCCCCCC(=O)OCC/C=C\CCCCC)COC(=O)CCC(CCCCCC)OC(=O)NCCN1CCCC1 (stereo not shown) : 78
CCCCC/C=C\CCOC(=O)CCCCCCC(=O)OCC(COC(=O)CCCCCCC(=O)OCC/C=C\CCCCC)(COC(=O)CCC(CCCCCC)OC(=O)NCCN1CCCC1)COC(=O)CCC(OCCCCCCCC)OCCCCCCCC (stereo not shown) : 63
CCCCC/C=C\CCOC(=O)CCCCCC(=O)OCC(COC(=O)CCCCCC(=O)OCC/C=C\CCCCC)(COC(=O)CCC(CCCCCC)OC(=O)NCCN1CCCC1)COC(=O)CC12CC3CC(CC(C3)C1)C2 (stereo not shown) : 79
CCCCCCC(CCC(=O)OCC(COC(=O)CCCCCCOC(=O)C(CCCC)CCCCCC)(COC(=O)CCCCCCOC(=O)C(CCCC)CCCCCC)COC(=O)CCCCCCOC(=O)C(CCCC)CCCCCC)OC(=O)NCCN1CCCC1 (stereo not shown) : 65
CCCCCCCC/C=C\CCCCCCCC(=O)OCC(COC(=O)CCCCCCC/C=C\CCCCCCCC)(COC(=O)CCCCCCC/C=C\CCCCCCCC)COC(=O)CCC(CCCCCC)OC(=O)NCCN1CCCC1 (stereo not shown) : 58
CCCCCCCC/C=C\CCCCCCCC(=O)OCC(COC(=O)CCCCCCC/C=C\CCCCCCCC)(COC(=O)CCC(CCCCCC)OC(=O)NCCN1CCCC1)COC(=O)CC12CC3CC(CC(C3)C1)C2 (stereo not shown) : 73
CCCCC/C=C\C/C=C\CCCCCCCC(=O)OCC(COC(=O)CCCCCCC/C=C\C/C=C\CCCCC)(COC(=O)CCCCCCC/C=C\C/C=C\CCCCC)COC(=O)CCC(CCCCCC)OC(=O)NCCN1CCCC1 (stereo not shown) : 65
CCCCC/C=C\C/C=C\CCCCCCCC(=O)OCC(COC(=O)CCCCCCC/C=C\C/C=C\CCCCC)(COC(=O)CCC(CCCCCC)OC(=O)NCCN1CCCC1)COC(=O)CC12CC3CC(CC(C3)C1)C2 (stereo not shown) : 66
